Measured values drawn from paper PMC9607282 for this set.

experiment: Pharmacokinetics in plasma and PELF of healthy pigs after intramuscular injection; type: in vivo; conditions: pig, plasma, im, AUC 24h, plasma, healthy group, ADP/SMZ injection 5/25 mg/kg b.w. i.m., n = 6
measurement-kind: AUC(0-t)
Don't forget the unit after the value.

Entry COc1cc(Cc2cnc(N)nc2N)cc(OC)c1N(C)C — recorded AUC(0-t) = 7710 ng·h/mL

====

assay: Pharmacokinetics in plasma and PELF of healthy pigs after intramuscular injection; type: in vivo; conditions: pig, PELF, im, PELF, healthy pigs, single drug i.m.: ADP 5 mg/kg b.w., SMZ 25 mg/kg b.w., n = 6
measurement-kind: Tmax
Don't forget the unit after the value.

Entry COc1cc(Cc2cnc(N)nc2N)cc(OC)c1N(C)C — recorded Tmax = 2 h
